Cited source for all entries: the supplement of paper PMC11246515

- procedure summary: total protein half-life in vivo (active degradation + dilution); higher = more stable protein
- run conditions: wild type E. coli NCM3722; growth: C-lim chemostat; doubling time 12 h
readout name: total protein half-life in vivo (h)
Unit h implied. Number only.

Look over these answered cases.
INSERT INTO assay_data (sequence_content, readout_name, val) VALUES
  ('MNKVAQYYRELVASLSERLRNGERDIDALVEQARERVIKTGELTRTEVDELTRAVRRDLEEFAMSYEESLKEESDSVFMRVIKESLWQELADITDKTQLEWREVFQDLNHHGVYHSGEVVGLGNLVCEKCHFHLPIYTPEVLTLCPKCGHDQFQRRPFEP [P0AAT9]', 'total protein half-life in vivo', 8.29),
  ('MATTQQSGFAPAASPLASTIVQTPDDAIVAGFTSIPSQGDNMPAYHARPKQSDGPLPVVIVVQEIFGVHEHIRDICRRLALEGYLAIAPELYFREGDPNDFADIPTLLSGLVAKVPDSQVLADLDHVASWASRNGGDVHRLMITGFCWGGRITWLYAAHNPQLKAAVAWYGKLTGDKSLNSPKQPVDIATDLNAPILGLYGGQDNSIPQESVETMRQALRAANAKAEIIVYPDAGHAFNADYRPSYHAASAEDGWQRMLEWFKQYGGKKSL', 'total protein half-life in vivo', 8.52),
  ('MVDKSQETTHFGFQTVAKEQKADMVAHVFHSVASKYDVMNDLMSFGIHRLWKRFTIDCSGVRRGQTVLDLAGGTGDLTAKFSRLVGETGKVVLADINESMLKMGREKLRNIGVIGNVEYVQANAEALPFPDNTFDCITISFGLRNVTDKDKALRSMYRVLKPGGRLLVLEFSKPIIEPLSKAYDAYSFHVLPRIGSLVANDADSYRYLAESIRMHPDQDTLKAMMQDAGFESVDYYNLTAGVVALHRGYKF [P0A887]', 'total protein half-life in vivo', 7.96),
  ('MKKIACLSALAAVLAFTAGTSVAATSTVTGGYAQSDAQGQMNKMGGFNLKYRYEEDNSPLGVIGSFTYTEKSRTASSGDYNKNQYYGITAGPAYRINDWASIYGVVGVGYGKFQTTEYPTYKHDTSDYGFSYGAGLQFNPMENVALDFSYEQSRIRSVDVGTWIAGVGYRF [P0A917]', 'total protein half-life in vivo', 14.4),
  ('MSIDRTSPLKPVSTVQPRETTDAPVTNSRAAKTTASTSTSVTLSDAQAKLMQPGSSDINLERVEALKLAIRNGELKMDTGKIADALINEAQQDLQSN [P0AEM4]', 'total protein half-life in vivo', 0.862);

Alright, here's another sequence for you.
What measured total protein half-life in vivo goes with `MNDAIPRPQAKTRKALTPLLEIRNLTKSYDGQHAVDDVSLTIYKGEIFALLGASGCGKSTLLRMLAGFEQPSAGQIMLDGVDLSQVPPYLRPINMMFQSYALFPHMTVEQNIAFGLKQDKLPKAEIASRVNEMLGLVHMQEFAKRKPHQLSGGQRQRVALARSLAKRPKLLLLDEPMGALDKKLRDRMQLEVVDILERVGVTCVMVTHDQEEAMTMAGRIAIMNRGKFVQIGEPEEIYEHPTTRYSAEFIGSVNVFEGVLKERQEDGLVLDSPGLVHPLKVDADASVVDNVPVHVALRPEKIMLCEEPPANGCNFAVGEVIHIAYLGDLSVYHVRLKSGQMISAQLQNAHRHRKGLPTWGDEVRLCWEVDSCVVLTV` ?
11.2
